Quick list: GI50 per entry.
- System: HOP-62
- TEST_NAME: NCI tumour cell line growth inhibition, 48 h
Calls of active or inactive are those of the source. No stated cut-off is given here; in the data, active = GI50 up to about 1.1 µM and inactive = higher.

Examples with answers:
N#CN=C(NCCO)NCCO | > 100 µM (inactive)
NC(=O)Cn1c(=O)[nH]c(=O)c2[nH]cnc21 | > 100 µM (inactive)
CC(=O)OC1CC2C(C)(C)C(=O)C=C[C@]2(C)C2CCC3(C)C(c4ccoc4)[C@@H](O)[C@H]4O[C@]43[C@]12C (stereo partly specified) | 22.7 µM (inactive)
COc1ccc(C(C#N)NNC(=O)c2ccccc2O)cc1OC (stereo unspecified) | 13.2 µM (inactive)

Input C[C@@H](c1ccccc1)N1CN(C(=O)OCc2ccccc2)C(CO)C1=O (stereo partly specified) . Output GI50: > 100 µM (inactive)

Input CCC(CCCN)Nc1cc(OC)cc2c(C)ccnc12 (stereo unspecified) . Output GI50: 15.1 µM (inactive)

Input COC(=O)C(Cc1ccc2c(c1)CCC2)Cc1ccc2c(c1)CCC2 . Output GI50: > 100 µM (inactive)

---

- Tested on: PC-3
- TEST_NAME: NCI tumour cell line growth inhibition, 48 h
Calls of active or inactive are those of the source. Rule as the data show it: active = GI50 up to about 1.1 µM and inactive = higher.
Please answer using one outcome listed in Yes for active, No for inactive

CCOc1cc(C2SCC(=O)N2c2ccc(Oc3ccc(Cl)cc3)c(Cl)c2)ccc1O (stereo unspecified) | No
CCCCCCCC/C=C(\Br)C(O)C(Br)Br (stereo unspecified) | No
CCC(C)N1CN(c2ccccc2)C2(CCN(CCCC3(c4ccc(F)cc4)OCCO3)CC2)C1=O (stereo unspecified) | No

INPUT: Fill in: this test's call for Oc1ccc2ccccc2c1/N=N/c1ccccc1 is ___
OUTPUT: No

INPUT: Fill in: this test's call for O=C1/C(=C/c2ccc(Cl)c(Cl)c2)CN(C(=O)CCN2CCOCC2)C/C1=C\c1ccc(Cl)c(Cl)c1 is ___
OUTPUT: Yes

INPUT: Fill in: this test's call for C=C1C[C@@H](O)[C@@H](Br)C(C)(C)[C@@]12C=CC(=O)CC2 is ___
OUTPUT: No

INPUT: Fill in: this test's call for CCOC(=O)c1nc2ccc(C(F)(F)F)cc2nc1NCc1cc(OC)c(OC)c(OC)c1 is ___
OUTPUT: No

---

Quick list: GI50 per entry.
- Tested on: NCI-H460
- TEST_NAME: NCI tumour cell line growth inhibition, 48 h
The source made the active and inactive calls. Cut-off read from the data, not from the text of the source: active = GI50 up to about 1.1 µM and inactive = higher.

Examples with answers:
O=C(CNc1nccs1)Nn1cnc2ccc(S(=O)(=O)Nc3nccs3)cc2c1=O | > 100 µM (inactive)
COc1cc(OC)c(OC)cc1/C=C/c1ccccn1 | > 10 µM (inactive)
COC1OC2COC(c3ccccc3)OC2C(OC(=S)c2ccccc2)C1O (stereo not given) | 65.9 µM (inactive)
COc1ccc(N2C(=O)C3c4[nH]c5cccc(Cl)c5c4C4CCC(C(C)(C)C)CC4C3C2=O)cc1 (stereo not given) | > 100 µM (inactive)

Input O=[N+]([O-])C(=C(Nc1cccc2cccnc12)Nc1cccc2cccnc12)C(Cl)=C(Cl)Cl . Output GI50: 33.4 µM (inactive)

---

- System: HOP-92
- TEST_NAME: NCI tumour cell line growth inhibition, 48 h
Calls of active or inactive are those of the source. Rule as the data show it: active = GI50 up to about 1.1 µM and inactive = higher.
Quick list: GI50 per entry.

COC(=O)c1c[nH]c(=O)[nH]c1=O | 30.5 µM (inactive)

Input O=C1CSC(c2ccccc2[N+](=O)[O-])N1c1ccc(-c2ccc(-n3c(-c4ccccc4)nc4ccccc4c3=O)cc2)cc1 (configuration not stated) . Output GI50: 46.6 µM (inactive)

Input COc1ccc2c3c1OC1C(=O)C=CC4(CC2)N(C)CCC314 (configuration not stated) . Output GI50: 22.7 µM (inactive)

Input COc1c(O)c(OC)c(C(=O)/C=C/c2ccccc2)c(O)c1OC . Output GI50: 21.2 µM (inactive)

Input O=C(O)C(Cc1ccccc1)N1C(=O)c2ccccc2C1=O (configuration not stated) . Output GI50: 29.2 µM (inactive)

---

- Tested on: KM12
- TEST_NAME: NCI tumour cell line growth inhibition, 48 h
The source made the active and inactive calls. No stated cut-off is given here; in the data, active = GI50 up to about 1.1 µM and inactive = higher. *1 amine or outer side, *2 acyl side, *3 side chain or, on linkers, in order; H or OH if unused. Where a SMILES comes first, the peptide text is derived from it. Bridges are numbered along the chain shown (N, C = ends). Roman numbers before positions name the chains, in order. [ ]: non-standard residue; d: D form. Actinocin(9to1) = Cc1c2oc3c(C)ccc(C(=O)[*:1])c3nc-2c(C(=O)[*:2])c(N)c1=O; Hyp = O=C(O)[CH]1C[CH](O)CN1; NMeV = CN[CH](C(=O)O)C(C)C; Sar = CNCC(=O)O
Please answer using one outcome listed in TRUE (active), FALSE (inactive)

O=C(CC1(O)C(=O)Nc2ccc(Br)cc21)c1ccc(Cl)cc1 (stereo not drawn) | FALSE
O=[N+]([O-])C(=C(Nc1cccc2cccnc12)Nc1cccc2cccnc12)C(Cl)=C(Cl)Cl | FALSE
COC(=O)C(C(=O)C(=O)Nc1nnc(S)[nH]1)c1csc(-n2nc(-c3ccccc3)cc2-c2ccccc2)n1 (stereo not drawn) | FALSE
O=C(O)CCC(=O)Oc1ccc(O)c2c1CCCC2=O | FALSE
CSC12c3cc(C)n(-c4ccc(I)cc4)c3CC(C)(C)CN1C(=O)C2Oc1ccccc1 (stereo not drawn) | FALSE
CN1C(=O)[C@@H]2N(CSC2(C)C)C1=S | FALSE

INPUT: Fill in: this test's call for CCCc1cc(OC(=O)c2c(O)cc(OC)cc2CCC)cc(O)c1C(=O)O is ___
OUTPUT: FALSE

INPUT: Fill in: this test's call for N#CN=C(NCCO)NCCO is ___
OUTPUT: FALSE

INPUT: Fill in: this test's call for NC(CCc1nc(-c2ccccc2)cs1)C(=O)O (stereo not drawn) is ___
OUTPUT: FALSE

INPUT: Fill in: this test's call for O=C(/C=C/c1ccc(OCc2ccccc2)cc1)NCc1ccc(C(=O)NCCc2c[nH]c3ccccc23)cc1 is ___
OUTPUT: FALSE

INPUT: Fill in: this test's call for CCOC(=O)C1=C(C)CC2C(=O)OC(=O)C2C1(C)C (stereo not drawn) is ___
OUTPUT: FALSE

INPUT: Fill in: this test's call for O=c1c(-c2c(-c3ccccc3)oc3ccc(Cl)cc3c2=O)c(-c2ccccc2)oc2ccc(Cl)cc12 is ___
OUTPUT: FALSE

INPUT: Fill in: this test's call for COc1cc2nc3n(c2cc1OC)C(O)c1c(Cl)nc(SC)nc1S3 (stereo not drawn) is ___
OUTPUT: FALSE

INPUT: Fill in: this test's call for O=C1C(Br)=C(c2ccccc2)O/C1=C/C(=O)c1ccc(Br)cc1 is ___
OUTPUT: FALSE

INPUT: Fill in: this test's call for COc1ccc(OC)c2c(=O)c3ccccc3[nH]c12 is ___
OUTPUT: FALSE

INPUT: Fill in: this test's call for COC(=O)/C=C(/C(=O)OC)c1c(C)c(C)c2c(C)cc(C)cc(C)c1-2 is ___
OUTPUT: FALSE

INPUT: Fill in: this test's call for Cc1c2oc3c(C)ccc(C(=O)NC4C(=O)NC(C(C)C)C(=O)N5CC(O)CC5C(=O)N(C)CC(=O)N(C)C(C(C)C)C(=O)OC4C)c3nc-2c(C(=O)NC2C(=O)NC(C(C)C)C(=O)N3CC(O)CC3C(=O)N(C)CC(=O)N(C)C(C(C)C)C(=O)OC2C)c(N)c1=O (stereo not drawn) (I: TV[Hyp][Sar][NMeV] / II: TV[Hyp][Sar][NMeV]; ester I:1-I:C, II:1-II:C; linker I:N-II:N via Actinocin(9to1); configuration not given here) is ___
OUTPUT: TRUE

INPUT: Fill in: this test's call for COC(=O)/C(=C/c1ccc(OC)cc1)C(C(=O)O)=C1CCCC1 is ___
OUTPUT: FALSE

---

Quick list: GI50 per entry.
- Test system: MOLT-4
- TEST_NAME: NCI tumour cell line growth inhibition, 48 h
Active and inactive are the calls of the source. No stated cut-off is given here; in the data, active = GI50 up to about 1.1 µM and inactive = higher.

O=C(CNc1nccs1)Nn1cnc2ccc(S(=O)(=O)Nc3nccs3)cc2c1=O | > 100 µM (inactive)

// next entry
Input CSC12c3cc(C)n(-c4ccc(I)cc4)c3CC(C)(C)CN1C(=O)C2Oc1ccccc1 (centres undefined) . Output GI50: > 63.1 µM (inactive)

---

- System: NCI-H460
- TEST_NAME: NCI tumour cell line growth inhibition, 48 h
Calls of active or inactive are those of the source. Cut-off read from the data, not from the text of the source: active = GI50 up to about 1.1 µM and inactive = higher.
EXPERIMENTAL_READOUT: GI50

CC1=NN(c2nc(N)nc(-c3ccccc3S(N)(=O)=O)n2)C(C)(C)C1 | 5.07 µM (inactive)

Test item CCOc1ccc(NC(=O)CC#N)cc1 ; NCI-H460; reported GI50 was > 100 µM (inactive)

Test item O=C(O)CNC(=O)c1ccccc1O ; NCI-H460; reported GI50 was > 100 µM (inactive)

Test item O=C(O)CCC(=O)Oc1ccc(O)c2c1CCCC2=O ; NCI-H460; reported GI50 was > 100 µM (inactive)

Test item Cc1ccc(S(=O)(=O)NC(=O)NCCc2ccc(O)c(O)c2)cc1 ; NCI-H460; reported GI50 was > 100 µM (inactive)

Test item O=C(CC1(O)C(=O)Nc2c(Cl)cc(Cl)cc21)c1ccc(Br)cc1 (stereo unspecified) ; NCI-H460; reported GI50 was 38.6 µM (inactive)
